method-notes: NCI Yeast Anticancer Drug Screen. Data for the mlh1 rad18 strain (AID 175)
condition-details: S. cerevisiae mlh1 rad18 strain growth inhibition; at 50.0 µM; active compounds read high
This is part of a sample that, as a whole, favours compounds with a hit. Of some 79,000 tested, about 15% had one in any assay.
# growth inhibition annotations
Write it as a number; the unit % goes unstated.

INSERT INTO assay_data (molecule, metric_name, endpoint_result) VALUES
  ('CC(C)Cc1cnc(CC(C)C)c(=O)[nH]1', 'growth inhibition', -25.9),
  ('CCC(=O)OCCOC(=O)CC', 'growth inhibition', 9.25),
  ('COc1cc(OC)c(C2c3cc4c(cc3OC(C)(N3CCCC3)C2C)OCO4)c(OC)c1 (stereo not drawn)', 'growth inhibition', 20.3),
  ('Cc1nn(CCO)c2nc(N)nc(N)c12', 'growth inhibition', -3.2),
  ('O=C(Oc1ccccc1)c1ccc(C(=O)Oc2ccccc2)cc1', 'growth inhibition', 11.6),
  ('CCOC(=O)C(Cl)(Cl)C(Cl)(OCC)C(=O)OCC (stereo not drawn)', 'growth inhibition', 22.2);

Exercise: Would you mind telling me what growth inhibition value was observed for `O=C1c2ccc([N+](=O)[O-])cc2C(=O)N1CC(F)(F)F` ?
Key: 3.8

Exercise: What value of growth inhibition has been recorded for this entry: `COC1=C(OC)C(=O)C(C(=O)CCCCC(=O)O)=C(C)C1=O`
Key: 13.9

Exercise: I have this molecule here, `Nc1nc(=O)[nH]c2n[nH]nc12` , and I need its recorded growth inhibition.
Key: 0.2

Exercise: Value lookup for growth inhibition; key = CC1NCCC(CC(=O)O)C1CC(=O)O (stereo not drawn)
Key: -10.3

---

method-notes: NCI Yeast Anticancer Drug Screen. Data for the rad50 strain (AID 155);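 also: 0% = growth of vehicle-only cultures of the same strain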
condition-details: S. cerevisiae rad50 strain growth inhibition; at 50.0 µM; active compounds read high
Description: Growth inhibition of yeast strains with defined genetic alterations is measured as a screen for potential anti-cancer activity. Selected strains with alterations in DNA damage repair or cell cycle control were exposed to compounds and growth inhibition was measured relative to vehicle treated controls. The strain used in this assay is rad50
Compounds without any hit were thinned out: in the full panel of roughly 79,000, 15% have a hit. Where a SMILES comes first, the peptide text is derived from it. [ ]: non-standard residue; d: D form. The star is where a group is joined. ξ: configuration not given here. Cbz = O=C(OCc1ccccc1)*; ξNva = CCCC(N)C(=O)O
metric-name: growth inhibition (%)
Output spec: scalar in %, unitless text.

INSERT INTO assay_data (molecule, endpoint_result) VALUES
  ('CC(=O)N/C(=C/c1ccccc1)C(=O)NC(C)(C)C', -13.1),
  ('CCC(O)(c1ccccc1)C(O)c1ccccc1 (stereo not given)', -2.35),
  ('Nc1nc(Cc2ccccc2)nc2[nH]ncc12', 3.85);

Exercise: Query: growth inhibition; subject: CCOP(=O)(OCC)C(C(=O)OC)C(=O)C(=O)Nc1c(C)cc(Br)cc1C (stereo not given)
Key: -42.1

Exercise: For the molecule CCCC(NC(=O)OCc1ccccc1)C(=O)NCC(=O)O (stereo not given) (Cbz-[ξNva]-Gly-OH) , what growth inhibition is on record?
Key: 24.6

Exercise: Need growth inhibition, item O=c1n(-c2ccccc2)c(=O)n2n1C1C=CC2C23C=CC12CCCC3 (stereo not given)
Key: 13.8

Exercise: // growth inhibition lookup, key: CCOC(=O)C(C)OC(=O)C(C)OC(C)=O (stereo not given)
Key: 4.7

Exercise: Which growth inhibition value is on record for CCOC(=O)C(C#N)CCC(C)=O (stereo not given) ?
Key: -12.3

Exercise: Any idea what growth inhibition was measured for `Cn1c2ccccc2c2c(-c3ccccc3)cc3c(c21)C(=O)C=CC3=O` ?
Key: -15.3

Exercise: What growth inhibition value was documented for this molecule, CCOC(=O)CNC(=O)C(Cc1ccccc1)NC(=O)c1ccccc1[N+](=O)[O-] (stereo not given) ?
Key: 22.8

Exercise: Returns the measured growth inhibition for the input molecule. Input: `Nc1nc(N)c(-c2ccc(Cl)cc2)c(CNc2cccc([N+](=O)[O-])c2)n1`
Key: 90.9

Exercise: I'd like to know its growth inhibition. The molecule in question is CC1(C(=O)O)CCCC2(C)C3=CC(=O)CCC3=CCC12 (stereo not given)
Key: -3.7

Exercise: Endpoint output: growth inhibition of `CCCCCCCNc1ccc(C(=O)OCC)cc1` . Value?
Key: -1.5

Exercise: Quick one: growth inhibition of `CCc1n[nH]c(=O)n1/N=C/c1ccccc1O` ?
Key: -9.2

Exercise: Requested field: growth inhibition. Item: `Oc1ccccc1CN1CCOCC1`
Key: 22.4

Exercise: Request the reported growth inhibition associated with CCCCCCCCCCC1SCC(=O)N1c1nncs1 (stereo not given)
Key: 13.2

Exercise: Requested field: growth inhibition. Item: `O=C(O)c1[nH]c2c(=O)[nH]c(=O)[nH]c2c1Br`
Key: 5.25

---

We begin with a simple list: items and their reported growth inhibition.
method-notes: NCI Yeast Anticancer Drug Screen. Data for the mlh1 rad18 strain (AID 175)
condition-details: S. cerevisiae mlh1 rad18 strain growth inhibition; at 50.0 µM; active compounds read high
Protocol: Growth inhibition of yeast strains with defined genetic alterations is measured as a screen for potential anti-cancer activity. Selected strains with alterations in DNA damage repair or cell cycle control were exposed to compounds and growth inhibition was measured relative to vehicle treated controls. The strain used in this assay is mlh1 rad18
This is part of a sample that, as a whole, favours compounds with a hit. Of some 79,000 tested, about 15% had one in any assay. The source made the active and inactive calls. Rule as the data show it: active = growth inhibition above about 70%; inactive = the rest.

Exercise: Given the molecule `COc1cc(C=C2C(=O)OC(C)(C)OC2=O)cc(OC)c1OC` , what is its reported growth inhibition?
Key: 9.05% (inactive)

Exercise: Value lookup for growth inhibition; key = O=C(c1ccccc1)N1OC2C=CC1CC2 (configuration not stated)
Key: -1.8% (inactive)

Exercise: // lookup growth inhibition for `OCCCCCCCCCCCBr`
Key: 17.1% (inactive)

Exercise: Name the recorded growth inhibition for CC(=O)OC1COC([n+]2cccc(C(N)=O)c2)C(OC(C)=O)C1OC(C)=O (configuration not stated) .
Key: -20% (inactive)

Exercise: Returns the measured growth inhibition for the input molecule. Input: CC(C)C(NC(=O)OC(C)(C)C)C(=O)O (configuration not stated)
Key: -6.9% (inactive)

Exercise: I am curious: what growth inhibition value has been reported for `CCOC(=Nc1cccc2ccccc12)Nc1cccc2ccccc12` ?
Key: -6.65% (inactive)

Exercise: Item under review: COc1cc2c(cc1OC)C(CS(C)=O)Cc1cc(OC)c(OC)cc1N(C)CCC2 (configuration not stated) . Reported growth inhibition?
Key: 29.9% (inactive)

Exercise: // query growth inhibition value for entry CC(=O)Nc1ccc2c(c1)C(P(=O)(OC(C)C)OC(C)C)c1ccccc1-2 (configuration not stated)
Key: -2.8% (inactive)

Exercise: Give the measured growth inhibition of `O=C(COc1cc(Cl)ccc1Cl)NCc1ccc(Cl)cc1` .
Key: 14.8% (inactive)

Exercise: For CCOC(=O)C1=C2c3ccc4cc(OC)ccc4c3CCC2(C)C(=O)C1 (configuration not stated) , what is its reported growth inhibition?
Key: -21.1% (inactive)

Exercise: Quick check: growth inhibition of CCC(C(=O)O)C(C)(C)O (configuration not stated) ?
Key: -15.3% (inactive)

Exercise: Data request, read-out growth inhibition, for `N#C/C(=N\Nc1ccc(F)cc1)C(=O)C1CC1`
Key: 11.7% (inactive)

---

method-notes: NCI Yeast Anticancer Drug Screen. Data for the sgs1 mgt1 strain (AID 161);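 also: 0% = growth of cultures given vehicle only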
condition-details: S. cerevisiae sgs1 mgt1 strain, at 50.0 µM, active compounds read high
Method: Growth inhibition of yeast strains with defined genetic alterations is measured as a screen for potential anti-cancer activity. Selected strains with alterations in DNA damage repair or cell cycle control were exposed to compounds and growth inhibition was measured relative to vehicle treated controls. The strain used in this assay is sgs1 mgt1
Compounds without any hit were thinned out: in the full panel of roughly 79,000, 15% have a hit.
Here the recorded growth inhibition is given for each entry.
A number alone suffices; assume %.

INSERT INTO assay_data (compound, metric_name, scale_unit, endpoint_result) VALUES
  ('COc1ccc(OC)c(/C=C/C(=O)NC(CO)CSCSC)c1 (stereo not drawn)', 'growth inhibition', '%', -3.9),
  ('C1CCN(CCC2CCNCC2)C1', 'growth inhibition', '%', -15.1),
  ('CCCn1c(CC)nc([N+](=O)[O-])c1Sc1ncn[nH]1', 'growth inhibition', '%', -7.1),
  ('CN(C)c1c(F)c(F)c(N=Nc2ccccc2)c(F)c1F', 'growth inhibition', '%', 1.15),
  ('C/C=C\C(=O)OC1CCC(C2CCCCC2)CC1 (stereo not drawn)', 'growth inhibition', '%', 14.8);

Exercise: Field request: growth inhibition | item: `Cc1ccc2c(c1)C(=O)C1(C2)Cc2ccc(C)cc2C1=O`
Key: 4.05

Exercise: Please give the measured growth inhibition for this compound: `Cc1cccc2c1ccc1ccccc12`
Key: -5.45

Exercise: Which value of growth inhibition has been reported for `CC(=O)NCc1cccc[n+]1[O-]` in the records?
Key: -3.8

Exercise: I am curious: what growth inhibition value has been reported for `COc1ccccc1/C=N/Nc1nnc2c3ccccc3c3ncccc3c2n1` ?
Key: -22.5

Exercise: GET /values?readout=growth inhibition&item= CC(=O)NC(C)CC1=CC(=O)C(C)=CC1=O (stereo not drawn)
Key: -16.1

Exercise: # get_value(readout='growth inhibition', item= `CN(c1nc(=[N+](C)C)ss1)C1CCCCC1` )
Key: 16.1

Exercise: Item `CCCCCOP(=O)(OCCCCC)C(c1ccccc1)c1ccccc1` has what recorded growth inhibition?
Key: -4.15

Exercise: // growth inhibition lookup, key: C#CC(C)(O)CC(C)C (stereo not drawn)
Key: -8.6
